Each entry below lists one item and its recorded IC50 value.
Biological target: Mitogen-activated protein kinase 14 (Homo sapiens)
Experiment: Inhibition of p38-alpha by whole blood assay
Answer format: numeric, nM implied, no suffix.

O=C(NCCOc1cc(-c2ccccc2Cl)c2ccc(=O)n(-c3c(Cl)cccc3Cl)c2c1)[C@H]1CCCN1	73
C[C@H](N)C(=O)NCCOc1cc(-c2ccccc2Cl)c2ccc(=O)n(-c3c(Cl)cccc3Cl)c2c1	32
NC(CO)C(=O)NCCOc1cc(-c2ccccc2Cl)c2ccc(=O)n(-c3c(Cl)cccc3Cl)c2c1 (centres undefined)	200

We next turn to a different molecule, shown below.
Req: So what does the record say about IC50 for "NCCC(=O)NCCOc1cc(-c2ccccc2Cl)c2ccc(=O)n(-c3c(Cl)cccc3Cl)c2c1" ?
Resp: 130

====

Molecular target: Mitogen-activated protein kinase 14 (Homo sapiens, UniProt Q16539)
Sequence (Q16539 whole entry): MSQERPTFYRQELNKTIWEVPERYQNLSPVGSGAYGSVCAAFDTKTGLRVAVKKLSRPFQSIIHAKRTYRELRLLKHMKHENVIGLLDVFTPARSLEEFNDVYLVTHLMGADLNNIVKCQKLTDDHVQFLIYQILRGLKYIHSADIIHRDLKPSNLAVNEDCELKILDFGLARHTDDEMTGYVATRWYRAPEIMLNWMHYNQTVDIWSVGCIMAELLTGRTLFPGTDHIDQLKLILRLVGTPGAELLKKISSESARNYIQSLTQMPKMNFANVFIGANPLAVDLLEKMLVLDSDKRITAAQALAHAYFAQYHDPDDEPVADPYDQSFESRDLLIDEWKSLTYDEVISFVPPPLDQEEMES
Assay: Inhibition of p38alpha
Conditions: read-out: IC50
Each entry below lists one item and its recorded IC50 value.
Answer format: numeric, nM implied, no suffix.

Take a look at these entries with their results.
C[C@@H](N)C(=O)NCCOc1cc(-c2ccccc2Cl)c2ccc(=O)n(-c3c(Cl)cccc3Cl)c2c1	0.2
O=C(NCCOc1cc(-c2ccccc2Cl)c2ccc(=O)n(-c3c(Cl)cccc3Cl)c2c1)[C@H]1CCCN1	0.9
NC1(C(=O)NCCOc2cc(-c3ccccc3Cl)c3ccc(=O)n(-c4c(Cl)cccc4Cl)c3c2)CC1	1.5

We next turn to a different compound, shown below.
Req: So what does the record say about IC50 for "O=C(NCCOc1cc(-c2ccccc2Cl)c2ccc(=O)n(-c3c(Cl)cccc3Cl)c2c1)[C@@H]1CCCN1" ?
Resp: 0.75

====

Biological target: Mitogen-activated protein kinase 14 (Homo sapiens, UniProt Q16539)
Test: Inhibition of p38alpha
Settings: read-out: IC50
observedProperty: pIC50
Schema: pIC50 number; meaning minus log10 of the concentration expressed in molar units.

COc1cc(-c2ccccc2Cl)c2cc(O)c(=O)n(-c3c(Cl)cccc3Cl)c2c1	7.55

Req: So what does the record say about pIC50 for COc1cc(-c2ccccc2Cl)c2c(c1)N(c1c(Cl)cccc1Cl)C(=O)C(O)C2 (stereo unspecified) ?
Resp: 8.05

Req: So what does the record say about pIC50 for "O=c1ccc2c(-c3ccccc3Cl)cccc2n1-c1c(Cl)cccc1Cl" ?
Resp: 8.22

Req: So what does the record say about pIC50 for "O=c1ccc2c(-c3ccccc3)cccc2n1-c1c(Cl)cccc1Cl" ?
Resp: 7.87

Req: So what does the record say about pIC50 for "NCCC(=O)NCCOc1cc(-c2ccccc2Cl)c2ccc(=O)n(-c3c(Cl)cccc3Cl)c2c1" ?
Resp: 9.24

Req: So what does the record say about pIC50 for NC(CO)C(=O)NCCOc1cc(-c2ccccc2Cl)c2ccc(=O)n(-c3c(Cl)cccc3Cl)c2c1 (stereo unspecified) ?
Resp: 9.30

====

Molecular target: Mitogen-activated protein kinase 14 (Homo sapiens, UniProt Q16539)
Experiment: Inhibition of p38-alpha by whole blood assay
pIC50: −log10 of the molar value.
Returns one of True or False; True when pIC50 is >= 7.

Req: Is the recorded value of pIC50 equal to or greater than 7 for this compound? "C[C@@H](N)C(=O)NCCOc1cc(-c2ccccc2Cl)c2ccc(=O)n(-c3c(Cl)cccc3Cl)c2c1"
Resp: True

Req: Is the recorded value of pIC50 equal to or greater than 7 for this compound? "CC(C)(N)C(=O)NCCOc1cc(-c2ccccc2Cl)c2ccc(=O)n(-c3c(Cl)cccc3Cl)c2c1"
Resp: True

Req: Is the recorded value of pIC50 equal to or greater than 7 for this compound? "NC1(C(=O)NCCOc2cc(-c3ccccc3Cl)c3ccc(=O)n(-c4c(Cl)cccc4Cl)c3c2)CC1"
Resp: False

====

Molecular target: Mitogen-activated protein kinase 14 (Homo sapiens)
Assay: Inhibition of p38alpha
Conditions: read-out: IC50
Param label: returns TRUE when IC50 < 5 nM, returns FALSE otherwise, including exact equality.

CC(C)(N)C(=O)NCCOc1cc(-c2ccccc2Cl)c2ccc(=O)n(-c3c(Cl)cccc3Cl)c2c1	TRUE
COc1cc(-c2ccccc2Cl)c2ccc(=O)n(-c3c(Cl)cccc3Cl)c2c1	TRUE
NCC(=O)NCCOc1cc(-c2ccccc2Cl)c2ccc(=O)n(-c3c(Cl)cccc3Cl)c2c1	TRUE

Let us examine a further case.
Req: Is 5 nM strictly greater than the molecule's reported IC50? molecule: "O=c1ccc2c(-c3cccnc3)cccc2n1-c1c(Cl)cccc1Cl"
Resp: FALSE

Hello, the source for this data is ChEMBL document CHEMBL1144044, in case you need it.
